src = paper PMC7294773

biological target: human DAT (hDAT) (Homo sapiens); experiment: Radiotracer uptake inhibition in HEK293 cells expressing hDAT; conditions: IC50 DAT, inhibition of transporter-mediated uptake, hDAT, [3H]MPP+ 20 nM, mean ± SEM, n=3
Sequence (Q01959 whole entry): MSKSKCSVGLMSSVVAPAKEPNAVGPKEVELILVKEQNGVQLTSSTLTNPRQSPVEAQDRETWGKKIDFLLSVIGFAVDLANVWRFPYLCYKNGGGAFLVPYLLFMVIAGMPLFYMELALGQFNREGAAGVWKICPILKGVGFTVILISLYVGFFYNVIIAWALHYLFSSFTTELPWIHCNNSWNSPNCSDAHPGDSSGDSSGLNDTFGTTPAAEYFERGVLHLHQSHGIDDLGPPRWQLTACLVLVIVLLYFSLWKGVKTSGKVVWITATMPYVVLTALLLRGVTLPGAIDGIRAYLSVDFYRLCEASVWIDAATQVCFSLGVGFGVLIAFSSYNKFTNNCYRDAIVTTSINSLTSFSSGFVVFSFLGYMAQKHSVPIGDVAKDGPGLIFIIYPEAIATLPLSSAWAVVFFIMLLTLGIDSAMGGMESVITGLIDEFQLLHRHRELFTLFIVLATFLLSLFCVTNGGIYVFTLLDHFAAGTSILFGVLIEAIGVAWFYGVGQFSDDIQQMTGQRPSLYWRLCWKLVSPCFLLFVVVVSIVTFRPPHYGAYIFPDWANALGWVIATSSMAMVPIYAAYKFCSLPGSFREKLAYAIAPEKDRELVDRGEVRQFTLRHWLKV
Experimental endpoint: IC50 (nM)
Give bare numbers, in nM.

[[record]]
compound = "CC1NCCOC1c1cccc(F)c1 (stereo not drawn)"
experimental_endpoint = "IC50"
test_result = 1160

[[record]]
compound = "CC1NCCOC1c1ccc(F)cc1 (stereo not drawn)"
experimental_endpoint = "IC50"
test_result = 2140


Let's switch to this compound now.
# input Could you tell me which IC50 is on file for CC1NCCOC1c1ccccc1F (stereo not drawn) ?
# output 1330

###

Can you tell me IC50 for the items I'm about to list?
target: human NET (hNET) (Homo sapiens); assay: Radiotracer uptake inhibition in HEK293 cells expressing hNET; type: cell-based; conditions: IC50 NET, inhibition of transporter-mediated uptake, hNET, [3H]MPP+ 20 nM, mean ± SEM, n=3
Sequence (P23975 whole entry): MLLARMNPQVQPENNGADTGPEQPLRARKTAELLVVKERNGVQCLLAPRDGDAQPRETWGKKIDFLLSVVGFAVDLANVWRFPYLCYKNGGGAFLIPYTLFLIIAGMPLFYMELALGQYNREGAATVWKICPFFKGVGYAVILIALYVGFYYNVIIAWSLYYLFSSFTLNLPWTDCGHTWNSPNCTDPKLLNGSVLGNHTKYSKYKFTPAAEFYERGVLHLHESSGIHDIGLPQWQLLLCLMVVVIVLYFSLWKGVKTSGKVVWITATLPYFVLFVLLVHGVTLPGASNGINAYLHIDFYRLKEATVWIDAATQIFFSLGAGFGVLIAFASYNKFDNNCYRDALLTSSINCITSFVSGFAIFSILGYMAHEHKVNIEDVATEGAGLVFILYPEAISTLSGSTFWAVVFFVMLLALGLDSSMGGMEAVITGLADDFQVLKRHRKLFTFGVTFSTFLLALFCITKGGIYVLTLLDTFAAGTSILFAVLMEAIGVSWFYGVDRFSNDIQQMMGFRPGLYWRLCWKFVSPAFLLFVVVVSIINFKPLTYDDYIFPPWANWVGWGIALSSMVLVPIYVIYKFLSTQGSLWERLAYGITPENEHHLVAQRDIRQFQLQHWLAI
Please append the unit to your numeric answer.

Look over these answered cases.
[[record]]
molecule = "CC1NCCOC1c1cccc(F)c1 (stereo not drawn)"
system_under_test = "human NET (hNET) (Homo sapiens)"
experimental_endpoint = "IC50"
test_result = "1510 nM"

[[record]]
molecule = "CC1NCCOC1c1ccccc1F (stereo not drawn)"
system_under_test = "human NET (hNET) (Homo sapiens)"
experimental_endpoint = "IC50"
test_result = "1290 nM"


Let's switch to this molecule now.
# input Give IC50 (human NET (hNET) (Homo sapiens)) of the following molecule: CC1NCCOC1c1ccc(F)cc1 (stereo not drawn)
# output 2050 nM

###

target: SERT (Rattus norvegicus); assay: Release of [3H]5-HT from rat brain synaptosomes
Sequence (P31652 whole entry): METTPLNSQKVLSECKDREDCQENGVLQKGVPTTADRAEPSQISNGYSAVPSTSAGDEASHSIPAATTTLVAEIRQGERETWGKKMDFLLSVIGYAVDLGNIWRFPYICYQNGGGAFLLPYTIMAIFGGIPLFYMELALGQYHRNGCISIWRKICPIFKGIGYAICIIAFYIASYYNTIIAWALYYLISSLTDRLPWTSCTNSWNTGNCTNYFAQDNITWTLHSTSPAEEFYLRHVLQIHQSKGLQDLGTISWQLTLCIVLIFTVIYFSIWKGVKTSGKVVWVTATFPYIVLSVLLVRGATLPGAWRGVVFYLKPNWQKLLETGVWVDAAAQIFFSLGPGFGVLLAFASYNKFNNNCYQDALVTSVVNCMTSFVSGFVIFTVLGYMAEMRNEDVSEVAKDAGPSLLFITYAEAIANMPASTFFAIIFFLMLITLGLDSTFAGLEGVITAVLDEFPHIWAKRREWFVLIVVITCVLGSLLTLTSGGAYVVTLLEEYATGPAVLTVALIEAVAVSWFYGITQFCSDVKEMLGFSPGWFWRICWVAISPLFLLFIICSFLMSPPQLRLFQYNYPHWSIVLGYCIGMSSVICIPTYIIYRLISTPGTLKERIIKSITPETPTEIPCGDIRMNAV
Can you tell me pEC50 for the items I'm about to list?
Numbers only, as −log10 of the molar value.

Look over these answered cases.
[[record]]
molecule = "CC1NCCOC1c1ccccc1F (stereo not drawn) [2-FPM, 2-(2-Fluorophenyl)-3-methylmorpholine]"
test_result = 5.32

[[record]]
molecule = "CC1NCCOC1c1cccc(F)c1 (stereo not drawn) [3-FPM, 2-(3-fluorophenyl)-3-methylmorpholine]"
test_result = 5.90


# input Could you tell me which pEC50 is on file for CC1NCCOC1c1ccc(F)cc1 (stereo not drawn) [4-FPM, 2-(4-fluorophenyl)-3-methylmorpholine] ?
# output 5.72

###

target: DAT (Rattus norvegicus, UniProt P23977); assay: Release of [3H]MPP+ from rat striatal synaptosomes; assay type: biochemical
Sequence (P23977 whole entry): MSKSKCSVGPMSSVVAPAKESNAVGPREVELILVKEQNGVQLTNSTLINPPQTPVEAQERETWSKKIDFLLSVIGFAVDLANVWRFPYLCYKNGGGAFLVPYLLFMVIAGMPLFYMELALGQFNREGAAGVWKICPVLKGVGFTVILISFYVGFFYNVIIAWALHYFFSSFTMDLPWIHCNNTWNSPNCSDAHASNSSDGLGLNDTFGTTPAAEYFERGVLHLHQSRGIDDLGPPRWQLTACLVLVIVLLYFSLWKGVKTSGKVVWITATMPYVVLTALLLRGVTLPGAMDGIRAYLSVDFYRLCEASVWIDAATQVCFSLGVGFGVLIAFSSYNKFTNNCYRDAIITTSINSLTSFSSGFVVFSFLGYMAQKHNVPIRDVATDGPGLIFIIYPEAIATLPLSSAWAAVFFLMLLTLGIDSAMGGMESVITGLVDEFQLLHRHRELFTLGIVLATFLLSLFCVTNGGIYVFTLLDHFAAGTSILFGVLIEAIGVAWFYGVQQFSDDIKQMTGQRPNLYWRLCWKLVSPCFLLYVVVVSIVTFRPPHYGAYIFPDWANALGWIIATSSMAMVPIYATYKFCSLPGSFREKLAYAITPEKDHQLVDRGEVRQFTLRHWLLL
Can you tell me pEC50 for the items I'm about to list?
Answers are plain numbers, as −log10 of the molar value.

Give pEC50 for each of the items listed below.
1. CC1NCCOC1c1ccccc1F (stereo not drawn)
2. CC1NCCOC1c1ccc(F)cc1 (stereo not drawn)
3. CC1NCCOC1c1cccc(F)c1 (stereo not drawn)

# output
1: 6.95; 2: 6.72; 3: 7.22

###

target: human SERT (hSERT) (Homo sapiens, UniProt P31645); test: Radiotracer uptake inhibition in HEK293 cells expressing hSERT; details: IC50 SERT, inhibition of transporter-mediated uptake, hSERT, [3H]5HT 100 nM, mean ± SEM, n=3
Sequence (P31645 whole entry): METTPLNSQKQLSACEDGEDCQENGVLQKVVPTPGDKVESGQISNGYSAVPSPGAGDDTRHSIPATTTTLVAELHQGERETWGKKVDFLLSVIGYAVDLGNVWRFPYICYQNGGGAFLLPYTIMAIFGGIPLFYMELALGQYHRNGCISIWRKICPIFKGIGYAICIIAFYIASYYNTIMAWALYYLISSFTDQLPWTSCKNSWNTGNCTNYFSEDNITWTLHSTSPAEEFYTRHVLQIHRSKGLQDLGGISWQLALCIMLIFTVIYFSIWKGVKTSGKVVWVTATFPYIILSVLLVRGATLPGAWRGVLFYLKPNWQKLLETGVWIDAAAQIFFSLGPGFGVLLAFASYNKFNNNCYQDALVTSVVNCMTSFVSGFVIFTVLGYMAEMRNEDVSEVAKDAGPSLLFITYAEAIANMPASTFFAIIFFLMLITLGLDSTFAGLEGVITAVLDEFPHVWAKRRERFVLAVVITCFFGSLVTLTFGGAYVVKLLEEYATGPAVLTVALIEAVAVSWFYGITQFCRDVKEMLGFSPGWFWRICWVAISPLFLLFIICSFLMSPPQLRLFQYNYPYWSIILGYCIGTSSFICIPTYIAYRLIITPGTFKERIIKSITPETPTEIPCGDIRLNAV
Can you tell me pIC50 for the items I'm about to list?
Give bare numbers, as −log10 of the molar value.

Give pIC50 for each of the items listed below.
1. CC1NCCOC1c1cccc(F)c1 (stereo not drawn)
2. CC1NCCOC1c1ccc(F)cc1 (stereo not drawn)
3. CC1NCCOC1c1ccccc1F (stereo not drawn)

# output
1: 3.95; 2: 4.06; 3: 3.34
